# Tested on: Tov112D
# Procedure text: Primary qHTS to identify gynecologic anti-cancer compounds using libraries of approved drugs and bioactive compounds (AID 1345084); also: nearly all actives have a fitted effect of over 55% in size
# Condition description: Gynecologic cancer cell panel viability, ATPlite luminescence, 48 h; series mostly up to 57.5 µM
# Source text: National Center for Advancing Translational Sciences [NCATS] Assay Overview: Chemotherapeutic drug responses vary from cancer to cancer and from patient to patient. […] ATPlite is a luminescence based assay reliant on the conversion of a luciferase substrate to light in the presence of ATP. As a cytotoxic compound will suppress growth and decrease the number of cells, the concentration of ATP will decrease, and less light signal will be detected in the well. […]
Results filed as inconclusive are left out. The source made the active and inactive calls. Calls follow the shape of the dose curve; as a rule, active = well fitted cell-killing curve with a large enough effect; inconclusive = small, poorly fitted or top-dose-only effect, or effect the other way; inactive = flat fitted curve, though single readings scatter.
Outcome (select one): true for active, false for inactive

What classification did CN1C(=O)c2ccccc2C1=O end up with in this test?
false

Call for entry O=C(C1CCCCC1)N1CC(=O)N2CCCc3ccccc3C2C1 (stereo not drawn) :
false

Could you please tell me the result logged for Fc1ccc(C(c2ccc(F)cc2)N2CCNCC2)cc1 in this assay?
false

Fill in: this test's call for Cc1cc(O)c(C)c(C)c1O is ___
false

Which result was noted for this compound in the test: COc1cc(C=O)ccc1O
false

New cases:
Recorded call for CCOC(=O)C(=O)c1csc(NC=O)n1 ?
false

Short answer needed: outcome of this test for CCOC(=O)O[C@]1(C(=O)OCCl)CC[C@H]2[C@@H]3CCC4=CC(=O)C=C[C@]4(C)[C@H]3[C@@H](O)C[C@@]21C ?
false

// outcome(item) with item = CO[C@@H]1[C@@H](OC)[C@H](C)[C@@](O)(CC(=O)O)O[C@H]1[C@H](C)[C@H]1O[C@@]2(CC[C@@](C)([C@H]3CC[C@@](C)([C@@H]4O[C@@H]([C@H]5O[C@](C)(O)[C@H](C)C[C@@H]5C)C[C@@H]4OC4C[C@H](OC)[C@@H](OC)[C@H](C)O4)O3)O2)C[C@H](O)[C@H]1C (stereo partly drawn)
true

GET /call?item= CCCCCN(CCCOC)C(=O)C(CCC(=O)O)NC(=O)c1ccc(Cl)c(Cl)c1 (stereo not drawn) returns the recorded outcome of this test.
false

Field: outcome | Entry: CCCc1c2oc(C(=O)O)cc(=O)c2cc2c(=O)cc(C(=O)O)n(CC)c12
false

Just curious, what result did O=C1CC(c2ccc(Cl)cc2)CC(=O)N1 get here?
false

Just curious, what result did Clc1ccc2c(c1)Nc1ccccc1S2 get here?
false

Assay result, entry O=C1NC(c2ccccc2)(c2ccccc2)C(=O)N1COP(=O)(O)O — outcome?
false

How did this test come out for CC1CCCCN1CCCOC(=O)c1ccc(OC2CCCCC2)cc1 (stereo not drawn) ?
false

I'd appreciate the recorded outcome for CCC(C(=O)NC(=O)NC(C)=O)c1ccccc1 (stereo not drawn) from this test.
false

I'd appreciate the recorded outcome for Cc1ccc(C(=O)Oc2ccc(C(O)CNC(C)(C)C)cc2OC(=O)c2ccc(C)cc2)cc1 (stereo not drawn) from this test.
false

Identify the outcome logged in this assay for the compound shown: NC(=O)NC1N=C([O][Al])NC1=O (stereo not drawn)
false

====

# Tested on: OV90
# Procedure text: Primary qHTS to identify gynecologic anti-cancer compounds using libraries of approved drugs and bioactive compounds (AID 1345084); also: nearly all actives have a fitted effect of over 55% in size
# Condition description: Gynecologic cancer cell panel viability, ATPlite luminescence, 48 h; series mostly up to 57.5 µM
Records with an inconclusive call do not appear. Calls of active or inactive are those of the source. The call rests on the fitted dose curve; in most records, active means well fitted cell-killing curve with a large enough effect; inconclusive means small, poorly fitted or top-dose-only effect, or effect the other way; inactive means flat fitted curve, though single readings scatter.
Answer with one of the outcomes active, inactive

// known answers, use as guide
Called result for CC(=O)c1ccc(O)c(C(N)=O)c1
inactive

Short answer needed: outcome of this test for NC(=O)COCCN1CCN(C(c2ccccc2)c2ccc(Cl)cc2)CC1 (centres undefined) ?
inactive

Answer briefly: the call reported for COC(=O)/C=C(/C)N in this assay.
inactive

What did the test return for COC(=O)c1cc(Cl)ccc1NS(=O)(=O)C(F)(F)F ?
inactive

Next:
Hey, what did the test say about O=C1OC2(c3ccccc31)c1cc(I)c(O)c(I)c1Oc1c2cc(I)c(O)c1I ?
inactive

Call for entry CC(CC1c2ccccc2CCc2ccccc21)CN(C)C (centres undefined) :
active

I would be grateful if you could indicate the recorded call for CC(C)C[C@@H]1[C@H](c2ccccc2)OC(=O)N1CCCN1CCCCCC1 .
inactive

Dear all, I need the recorded test outcome for COc1ccc(/C(C)=C/C(=O)O)c(OC)c1 , thank you.
inactive

How did this test come out for O=C(O)C(=O)Nc1cccc(-c2nn[nH]n2)c1 ?
inactive

Hi team, can someone confirm the assay call for CCCC(=O)OCOC(=O)C1=C(C)NC(C)=C(C(=O)OC)C1c1cccc(Cl)c1Cl (centres undefined) ?
inactive

Test call for this compound, please: CC(C)(C)NCC(O)COc1ccccc1OCC1CCCO1 (centres undefined)
inactive

Test call, this compound: CC(NC(CCc1ccccc1)C(=O)O)C(=O)N1C(=O)N(C)CC1C(=O)O (centres undefined)
inactive

Hi, do you know how CC(=O)OCC[N+](C)(C)C came out in this test?
inactive

For O=C1Nc2cc(Cl)ccc2Oc2ccccc21 , what call appears in the results of this test?
inactive

Short answer needed: outcome of this test for CCCCC(CC)COC(=O)c1ccccc1C(=O)O (centres undefined) ?
inactive

Hello, the source for this data is PubChem BioAssay (NCATS), in case you need it.
